procedure summary: NCI Yeast Anticancer Drug Screen. Data for the bub3 strain (AID 167)
condition set: S. cerevisiae bub3 mutant strain, at 50.0 µM, hits give high values
The panel holds about 79,000 compounds, 15% with a hit somewhere; the sample as a whole holds those more often.
measured attribute: growth inhibition (%)
Output spec: scalar in %, unitless text.

Check out these entries, answers already filled in.
CC1(C)N=C(N)N=C(N)N1c1cccc(CSc2ccccc2)c1; -18.1
C=CC[N+](CCO)(CCO)CCCCCCCCCCCCCCCCCC; 98.5
Nc1ccc(N)c(N)c1; -4.9
CC1CCCC1N (configuration not stated); -5.85
Cc1nccn1C(C)c1ccccc1 (configuration not stated); 0.35
O=C(O)CCc1cccc2c(=O)cc(-c3ccccc3)oc12; 8.35

Lookup result for CCCCCCCCCCCCCCCCCC(=O)OCC(CO)OC(=O)CCCCCCCCCCCCCCCCC (configuration not stated) ; measured growth inhibition: 34.1

// growth inhibition lookup, compound = `CN1CCC(CNc2ccccc2)CC1` , result: 14.5

Briefly, growth inhibition measured for `O=[N+]([O-])c1ccc(Nc2ccccc2)c([N+](=O)[O-])c1` : -7.05

The reported growth inhibition of the compound `CCOC(=O)C(/C=C/c1cc(C)c(C)c(C)c1)(NC=O)C(=O)OCC` was 12.1

###

procedure summary: NCI Yeast Anticancer Drug Screen. Data for the sgs1 mgt1 strain (AID 161);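 note: 0% = growth of cultures given vehicle only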
condition set: S. cerevisiae sgs1 mgt1 strain, at 50.0 µM
Compounds without any hit were thinned out: in the full panel of roughly 79,000, 15% have a hit. Activity calls are given as the source filed them. No stated cut-off is given here; in the data, active means growth inhibition above about 70%; inactive means the rest.
Assign a class; possible classes are active, inactive

Previously resolved entries follow.
Cc1cc(C)c(S(N)(=O)=O)c(C)c1; inactive
N#CNC1=C(C#N)C(c2ccccc2)CC(=O)N1 (configuration not stated); inactive
C/C(CCl)=N/NC(N)=S; inactive

Check the results log: what was the call for COC1OC(CBr)C(OC(=O)c2ccccc2)C(OC(C)=O)C1OC(C)=O (configuration not stated) ?
inactive

###

procedure summary: NCI Yeast Anticancer Drug Screen. Data for the bub3 strain (AID 167)
condition set: S. cerevisiae bub3 mutant strain, at 50.0 µM
The panel holds about 79,000 compounds, 15% with a hit somewhere; the sample as a whole holds those more often. Activity calls are given as the source filed them. Rule as the data show it: active = growth inhibition above about 70%; inactive = the rest.
Pick one: true (1) = active, false (0) = inactive

COC(=O)c1cccc(C)c1C(=O)c1ccc(C)cc1C; false (0)
C[Si](C)(COC(N)=O)Cc1ccccc1; false (0)
NC(=S)N/N=C1\CCCC1C(O)(C(F)(F)Cl)C(F)(F)Cl (stereo unspecified); false (0)

Recorded test outcome, item `O=c1[nH]c2ccccc2nc1/C=C\NC(=S)Nc1cc(Cl)ccc1Cl`
false (0)

Give the logged outcome of this assay for the following molecule: CC(=O)OC1C=CCC2C(=O)C3=C(C(=O)c4ccccc4C3=O)C(=O)C12 (stereo unspecified)
false (0)

Field: outcome | Entry: CCCCC/C=C1\CCC(CN2CCOCC2)C1=O (stereo unspecified)
true (1)

###

procedure summary: NCI Yeast Anticancer Drug Screen. Data for the sgs1 mgt1 strain (AID 161);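 note: 0% = growth of cultures given vehicle only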
condition set: S. cerevisiae sgs1 mgt1 strain, at 50.0 µM, hits give high values
Compounds without any hit were thinned out: in the full panel of roughly 79,000, 15% have a hit.
We use -10% as the dividing line for growth inhibition: on or above the line is yes (1), below is no (0).

Could you verify whether the entry `CCN(CC)C(=O)COc1ccc(Cl)cc1C(C)C` shows growth inhibition of no less than -10%?
yes (1)

Hi, just wondering whether `COCc1ccnn1-c1ccccc1C` shows growth inhibition of -10% or higher.
yes (1)

Can `COc1ccc(C(=O)c2ccccc2)c(O)c1OC` be said to have growth inhibition at or above -10%?
yes (1)

###

procedure summary: NCI Yeast Anticancer Drug Screen. Data for the sgs1 mgt1 strain (AID 161);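 note: 0% = growth of cultures given vehicle only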
condition set: S. cerevisiae sgs1 mgt1 strain, at 50.0 µM, hits give high values
Compounds without any hit were thinned out: in the full panel of roughly 79,000, 15% have a hit.
Attribute: growth inhibition
Your answer should be a plain number; it is taken to be in %.

# example entries with known answers
COCC/C=C\CN(C(C)C)C(C)C; -0.4
CC1(C)CC(=O)C2(C)C(C1O)C2C1C2C(O)C(C)(C)CC(=O)C21C (configuration not stated); -5.3
O=C(CCc1ccc(O)c(O)c1)NCCc1cc(O)cc(OCc2ccccc2)c1; -10.6
CC1(C)N=C(N)N=C(N)N1c1cccc(CSc2ccccc2)c1; -20.8
COc1ccccc1CC(C)N1CCCC1c1ccccc1 (configuration not stated); -0.9
CN(NC(=O)CCCl)C1=NCCN1; -3.95
CC(=O)N1CC/C(=C\c2ccccc2)C1=O; -12.5
NC(=O)NC(=O)N/N=C/c1ccccc1; 2.8
CCCCCC/C(=C\c1ccc(O)cc1)C(=O)O; 32.8
Cc1ccccc1NN; -2.3

Recorded growth inhibition (compound CC(C)(C)C1=NC(S)NC(CCC(=O)Nc2ccccc2[N+](=O)[O-])=C1 (configuration not stated) ): -0.4

# growth inhibition (compound: O=C(O)CC1CC2CC(=O)C1C2 (configuration not stated) ) is -14.7

Form field growth inhibition, entry O=c1cc(CCl)nc2c3ncn(C4OC(CO)C(O)C4O)c3ncn12 (configuration not stated) : -0.25

Recorded growth inhibition (compound CCC1=CCC(P(=O)(c2ccccc2)c2ccccc2)CC1C (configuration not stated) ): -0.15

Value of measured growth inhibition for the entry `Cc1ccccc1C1=CCCCCC1` : -2.8

Value of measured growth inhibition for the entry `CCOCC(=O)N[C@H]1CCc2cc(OC)c(OC)c(OC)c2-c2ccc(SC)c(=O)cc21` : 12.2

The recorded growth inhibition for entry `CCCCCC1CCN(C(=O)c2ccc(N)cc2)CC1` equals 44.8

// `CCOC(=O)C1=NN(c2ccccc2)C(=O)/C1=C\n1c(=S)sc2ccccc21` : growth inhibition value = -6.5

###

procedure summary: NCI Yeast Anticancer Drug Screen. Data for the rad50 strain (AID 155);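 note: 0% = growth of vehicle-only cultures of the same strain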
condition set: S. cerevisiae rad50 strain growth inhibition; at 50.0 µM; hits give high values
This is part of a sample that, as a whole, favours compounds with a hit. Of some 79,000 tested, about 15% had one in any assay. The source made the active and inactive calls. Rule as the data show it: active = growth inhibition above about 70%; inactive = the rest. Where a SMILES comes first, the peptide text is derived from it. [ ]: non-standard residue; d: D form. The star is where a group is joined. Cbz = O=C(OCc1ccccc1)*; Dha = C=C(N)C(=O)O
measured attribute: growth inhibition

Solved entries (count: 5):
CC1C(=O)OC(=O)C1C (stereo unspecified); -11.2% (inactive)
COC(=O)C12OCC34C(CC5C(C)CC(=O)C(O)C5(C)C3C(O)C1O)OC(=O)C(OC(C)=O)C24 (stereo unspecified); 31.2% (inactive)
COc1nc(NC2OC(COC(C)=O)C(OC(C)=O)C(OC(C)=O)C2OC(C)=O)c(C(=O)CCl)c(=O)[nH]1 (stereo unspecified); 3.75% (inactive)
O=C(O)c1[nH]ncc1[N+](=O)[O-]; 24.1% (inactive)
O=C(O)C(=O)C(c1ccccc1)c1ccccc1; -0.4% (inactive)

Lab note: C=C(NC(=O)CNC(=O)OCc1ccccc1)C(=O)O (Cbz-Gly-[Dha]-OH) gave growth inhibition of 3.05% (inactive)

So for CN1C(c2ccco2)NC(=O)C12CCN(Cc1ccccc1)CC2 (stereo unspecified) , the logged growth inhibition turned out to be 24.8% (inactive)

Recorded growth inhibition (molecule O=c1cc(CO)oc(C(Nc2cccc(Cl)c2)c2ccccc2)c1O (stereo unspecified) ): 34.2% (inactive)

What the record says about `Nc1c(Cl)ncnc1NCCCCCO` : growth inhibition is -5.35% (inactive)

Form: molecule = `CC(C)(C)CC(C)(C)N` ; growth inhibition = -2.65% (inactive)

The value of growth inhibition measured for the molecule O=C1CCCC1CC(CN1CCOCC1)Sc1nnnn1-c1ccccc1 (stereo unspecified) turned out to be 6.55% (inactive)

###

procedure summary: NCI Yeast Anticancer Drug Screen. Data for the cln2 rad14 strain (AID 165);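 note: 0% = growth equal to vehicle treated cultures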
condition set: S. cerevisiae cln2 rad14 strain, at 50.0 µM, hits give high values
This is part of a sample that, as a whole, favours compounds with a hit. Of some 79,000 tested, about 15% had one in any assay.
measured attribute: growth inhibition (%)
Numeric answer only, unit % assumed.

Example cases with answers are listed next.
Cc1nnc(N)s/c1=N/O; -5.55
CCC(N)CS(=O)(=O)O (configuration not stated); -61
c1ccc(C(c2ccccc2)[n+]2ccccc2)cc1; -11.2
O=[N+]([O-])c1cccc(S(=O)(=O)O)c1 (tested in a mixture with another compound); -33.6
Nc1cccc(/C=C/c2ccc([N+](=O)[O-])cc2)c1; -12.4

Item: CCC(C)(C)C1CCCCC1OC(C)=O (configuration not stated) | growth inhibition: 7.95

// recorded growth inhibition for CC(C)C1NC(=O)NC1=O (configuration not stated) : 10.7
